Taken from ChEMBL document CHEMBL1141332.

system: COLO 205; assay: Cytotoxicity against human COLO205 cells; format: functional; details: read-out: Log LC50 (the source's name) (converted)
Entries annotated with measured CC50
Give the quantity in µM, number only.

CC(=O)O[C@H]1C[C@H]2[C@@](C)(CC[C@H]3C(C)(C)CCC[C@@]32CO)[C@@H]2CC=C(C(C)=O)[C@H](C=O)[C@@]12C :: 4.37

-- ask CC50 lookup needed for CC(=O)C1=CC[C@H]2[C@]3(C)CC[C@H]4C(C)(C)CCC[C@]4(C(=O)O)[C@H]3CC(=O)[C@]2(C)[C@H]1C=O , thanks.
-- reply 7.41

-- ask Same read-out for CC(=O)O[C@@H]1C[C@H]2[C@]3(C)CC[C@H]4C(C)(C)CCC[C@]4(C)[C@H]3C[C@H](O)[C@]2(C)[C@@H](C=O)[C@@H]1C(C)=O ?
-- reply 5.25

-- ask Same read-out for CC1OC(=O)[C@H]2[C@H]1[C@@H](O)C[C@H]1[C@]3(C)CC[C@H]4C(C)(C)CCC[C@]4(C)[C@H]3C[C@@H](O)[C@]21C (some centres undefined) ?
-- reply 66.1

---

Entries annotated with measured TGI
system: RPMI-8226; test: Cytotoxicity against human RPMI8226 cells; assay type: functional; conditions: read-out: Log TGI (converted)
Lab note: write values as number then unit, every time.

Worked cases, answers included:
CC(=O)O[C@H]1C[C@H]2[C@@](C)(CC[C@H]3C(C)(C)CCC[C@@]32CO)[C@@H]2CC=C(C(C)=O)[C@H](C=O)[C@@]12C :: 1820 nM
CC(=O)C1=CC[C@H]2[C@]3(C)CC[C@H]4C(C)(C)CCC[C@]4(C(=O)O)[C@H]3CC(=O)[C@]2(C)[C@H]1C=O :: 2340 nM
CC1OC(=O)[C@H]2[C@H]1[C@@H](O)C[C@H]1[C@]3(C)CC[C@H]4C(C)(C)CCC[C@]4(C)[C@H]3C[C@@H](O)[C@]21C (some centres undefined) :: 51300 nM

-- ask TGI lookup needed for CC(=O)O[C@@H]1C[C@H]2[C@]3(C)CC[C@H]4C(C)(C)CCC[C@]4(C)[C@H]3C[C@H](O)[C@]2(C)[C@@H](C=O)[C@@H]1C(C)=O , thanks.
-- reply 2090 nM

---

Entries annotated with measured GI50
system: SN12C; experiment: Cytotoxicity against human SN12C cells; type: functional
Give the quantity in µM, number only.

CC(=O)O[C@@H]1C[C@H]2[C@]3(C)CC[C@H]4C(C)(C)CCC[C@]4(C)[C@H]3C[C@H](O)[C@]2(C)[C@@H](C=O)[C@@H]1C(C)=O [SCALARHERBACIN A] :: 1.35

-- ask GI50 lookup needed for CC(=O)C1=CC[C@H]2[C@]3(C)CC[C@H]4C(C)(C)CCC[C@]4(C(=O)O)[C@H]3CC(=O)[C@]2(C)[C@H]1C=O , thanks.
-- reply 1.55

-- ask Same read-out for CC1OC(=O)[C@H]2[C@H]1[C@@H](O)C[C@H]1[C@]3(C)CC[C@H]4C(C)(C)CCC[C@]4(C)[C@H]3C[C@@H](O)[C@]21C (some centres undefined) ?
-- reply 17.4

-- ask Same read-out for CC(=O)O[C@H]1C[C@H]2[C@@](C)(CC[C@H]3C(C)(C)CCC[C@@]32CO)[C@@H]2CC=C(C(C)=O)[C@H](C=O)[C@@]12C ?
-- reply 1.2

---

Entries annotated with measured TGI
test system: HT-29; assay: Cytotoxicity against human HT29 cells; assay type: functional; details: read-out: Log TGI (converted)
Give the quantity in µM, number only.

CC(=O)O[C@@H]1C[C@H]2[C@]3(C)CC[C@H]4C(C)(C)CCC[C@]4(C)[C@H]3C[C@H](O)[C@]2(C)[C@@H](C=O)[C@@H]1C(C)=O [SCALARHERBACIN A] :: 1.1

-- ask TGI lookup needed for CC(=O)O[C@H]1C[C@H]2[C@@](C)(CC[C@H]3C(C)(C)CCC[C@@]32CO)[C@@H]2CC=C(C(C)=O)[C@H](C=O)[C@@]12C , thanks.
-- reply 1.15

-- ask Same read-out for CC(=O)C1=CC[C@H]2[C@]3(C)CC[C@H]4C(C)(C)CCC[C@]4(C(=O)O)[C@H]3CC(=O)[C@]2(C)[C@H]1C=O ?
-- reply 1.62

-- ask Same read-out for CC1OC(=O)[C@H]2[C@H]1[C@@H](O)C[C@H]1[C@]3(C)CC[C@H]4C(C)(C)CCC[C@]4(C)[C@H]3C[C@@H](O)[C@]21C (some centres undefined) ?
-- reply 38

---

Entries annotated with measured CC50
system: HCT-15; assay: Cytotoxicity against human HCT15 cells; format: functional; details: read-out: Log LC50 (the source's name) (converted)
Give the quantity in µM, number only.

CC(=O)O[C@H]1C[C@H]2[C@@](C)(CC[C@H]3C(C)(C)CCC[C@@]32CO)[C@@H]2CC=C(C(C)=O)[C@H](C=O)[C@@]12C :: 1.23
CC(=O)O[C@@H]1C[C@H]2[C@]3(C)CC[C@H]4C(C)(C)CCC[C@]4(C)[C@H]3C[C@H](O)[C@]2(C)[C@@H](C=O)[C@@H]1C(C)=O :: 4.79
CC(=O)C1=CC[C@H]2[C@]3(C)CC[C@H]4C(C)(C)CCC[C@]4(C(=O)O)[C@H]3CC(=O)[C@]2(C)[C@H]1C=O :: 5.25

Here is the next item to consider.
-- ask CC50 lookup needed for CC1OC(=O)[C@H]2[C@H]1[C@@H](O)C[C@H]1[C@]3(C)CC[C@H]4C(C)(C)CCC[C@]4(C)[C@H]3C[C@@H](O)[C@]21C (some centres undefined) , thanks.
-- reply 60.3

---

tested on: EKVX; assay: Cytotoxicity against human EKVX cells; format: functional
Entries annotated with measured GI50
Give the quantity in nM, number only.

CC(=O)C1=CC[C@H]2[C@]3(C)CC[C@H]4C(C)(C)CCC[C@]4(C(=O)O)[C@H]3CC(=O)[C@]2(C)[C@H]1C=O :: 2140
CC1OC(=O)[C@H]2[C@H]1[C@@H](O)C[C@H]1[C@]3(C)CC[C@H]4C(C)(C)CCC[C@]4(C)[C@H]3C[C@@H](O)[C@]21C (some centres undefined) :: 23400
CC(=O)O[C@@H]1C[C@H]2[C@]3(C)CC[C@H]4C(C)(C)CCC[C@]4(C)[C@H]3C[C@H](O)[C@]2(C)[C@@H](C=O)[C@@H]1C(C)=O [SCALARHERBACIN A] :: 1320

Here is the next item to consider.
-- ask GI50 lookup needed for CC(=O)O[C@H]1C[C@H]2[C@@](C)(CC[C@H]3C(C)(C)CCC[C@@]32CO)[C@@H]2CC=C(C(C)=O)[C@H](C=O)[C@@]12C , thanks.
-- reply 832

---

Entries annotated with measured GI50
tested on: Malme-3M; assay: Cytotoxicity against human MALME-3M cells; format: functional
Give the quantity in µM, number only.

CC(=O)C1=CC[C@H]2[C@]3(C)CC[C@H]4C(C)(C)CCC[C@]4(C(=O)O)[C@H]3CC(=O)[C@]2(C)[C@H]1C=O :: 1.62
CC(=O)O[C@@H]1C[C@H]2[C@]3(C)CC[C@H]4C(C)(C)CCC[C@]4(C)[C@H]3C[C@H](O)[C@]2(C)[C@@H](C=O)[C@@H]1C(C)=O [SCALARHERBACIN A] :: 1.95
CC(=O)O[C@H]1C[C@H]2[C@@](C)(CC[C@H]3C(C)(C)CCC[C@@]32CO)[C@@H]2CC=C(C(C)=O)[C@H](C=O)[C@@]12C :: 1.29

Here is the next item to consider.
-- ask GI50 lookup needed for CC1OC(=O)[C@H]2[C@H]1[C@@H](O)C[C@H]1[C@]3(C)CC[C@H]4C(C)(C)CCC[C@]4(C)[C@H]3C[C@@H](O)[C@]21C (some centres undefined) , thanks.
-- reply 26.9

---

Entries annotated with measured TGI
tested on: NCI-H226; experiment: Cytotoxicity against human NCI-H226 cells; format: functional; settings: read-out: Log TGI (converted)
Give the quantity in µM, number only.

CC(=O)O[C@H]1C[C@H]2[C@@](C)(CC[C@H]3C(C)(C)CCC[C@@]32CO)[C@@H]2CC=C(C(C)=O)[C@H](C=O)[C@@]12C :: 2.82
CC(=O)C1=CC[C@H]2[C@]3(C)CC[C@H]4C(C)(C)CCC[C@]4(C(=O)O)[C@H]3CC(=O)[C@]2(C)[C@H]1C=O :: 3.8
CC1OC(=O)[C@H]2[C@H]1[C@@H](O)C[C@H]1[C@]3(C)CC[C@H]4C(C)(C)CCC[C@]4(C)[C@H]3C[C@@H](O)[C@]21C (some centres undefined) :: 41.7

Here is the next item to consider.
-- ask TGI lookup needed for CC(=O)O[C@@H]1C[C@H]2[C@]3(C)CC[C@H]4C(C)(C)CCC[C@]4(C)[C@H]3C[C@H](O)[C@]2(C)[C@@H](C=O)[C@@H]1C(C)=O [SCALARHERBACIN A] , thanks.
-- reply 3.24
